target: T1, extracellular domain of rhesus monkey BCMA (rhesus monkey, UniProt F7FFA0 1-53); test: Octet BLI; Fab 200 nM
T1 construct: extracellular domain; also called RhBCMA
T1 sequence (F7FFA0 entry or part of it): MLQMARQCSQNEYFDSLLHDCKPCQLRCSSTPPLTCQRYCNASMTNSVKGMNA
Listed next: entries and their corresponding pKd.
The quantity pKd is defined as the negative base-10 logarithm of the molar concentration.

AB200-R1a-Fab_Vk18 (Fab, V domains shown) VH: QVQLVQSGAEVKKPGSSVKVSCKASGGTFSNYWMHWVRQAPGQGLEWMGATYRGHSDTYYNQKFKGRVTITADKSTSTAYMELSSLRSEDTAVYYCARGAIYHGYDVLDNWGQGTLVTVSS VL: DIQMTQSPSSLSASVGDRVTITCTASQDISNYLNWYQQKPGKAPKLLIYYTSDLHIGVPSRFSGSGSGTDFTLTISSLQPEDFATYYCQQYRKLPWTFGQGTKLEIKR	7.96

IN: Fill in the blank: the reported pKd of AB200-R1a-Fab_Vk15 (Fab, V domains shown) VH: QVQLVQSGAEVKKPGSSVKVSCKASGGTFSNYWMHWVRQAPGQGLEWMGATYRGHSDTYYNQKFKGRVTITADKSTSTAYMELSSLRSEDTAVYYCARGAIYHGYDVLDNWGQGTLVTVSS VL: DIQMTQSPSSLSASVGDRVTITCSASHEISNYLNWYQQKPGKAPKLLIYYTSSLHSGVPSRFSGSGSGTDFTLTISSLQPEDFATYYCQQYRKLPWTFGQGTKLEIKR is ____.
OUT: 8.01

IN: Another binder to look at: AB200-R1a-Fab_Vk16 (Fab, V domains shown) VH: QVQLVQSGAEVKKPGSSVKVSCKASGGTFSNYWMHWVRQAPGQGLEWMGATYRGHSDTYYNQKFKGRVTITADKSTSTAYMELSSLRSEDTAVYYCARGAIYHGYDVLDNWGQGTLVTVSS VL: DIQMTQSPSSLSASVGDRVTITCSASQDITNYLNWYQQKPGKAPKLLIYATSNLHSGVPSRFSGSGSGTDFTLTISSLQPEDFATYYCQEYRKLPWTFGQGTKLEIKR
OUT: 7.89

Hello, the source for this data is patent US20240327535A1, in case you need it.
